Data credit: paper PMC3071364

Biological target: FhCL1 (Fasciola hepatica, UniProt Q7JNQ9)
Construct: His tag (inferred from Ni-NTA purification) (C); made in house; host or cells: Pichia pastoris
Sequence (Q7JNQ9 entry or part of it): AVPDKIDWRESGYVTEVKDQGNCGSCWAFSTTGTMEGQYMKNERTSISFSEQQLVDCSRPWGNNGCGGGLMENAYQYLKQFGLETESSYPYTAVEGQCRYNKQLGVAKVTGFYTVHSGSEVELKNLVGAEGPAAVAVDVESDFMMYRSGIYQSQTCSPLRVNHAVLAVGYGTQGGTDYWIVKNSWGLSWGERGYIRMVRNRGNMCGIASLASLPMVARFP
Assay: Inactivation of recombinant FhCL1 by inhibitors (progress curves in presence of substrate)
Assay type: biochemical
Conditions: Ki(app), FhCL1
Exercise: state measured pKi for each of the compounds provided.
In simple prose, pKi is minus the logarithm base ten of a concentration in moles per litre.

The value of pKi measured for the compound C[C@H](NC(=O)[C@H](Cc1ccccc1)NC(=O)OCc1ccccc1)C(=O)C=[N+]=[N-] [Z-Phe-Ala-CHN2] turned out to be 7.50

response.value for CC(C)C[C@H](NC(=O)OCc1ccccc1)C(=O)NNC(=O)NNC(=O)[C@H](CC(C)C)NC(=O)[C@H](Cc1ccccc1)NC(=O)OC(C)(C)C [Cathepsin K inhibitor II, Z-LNHNHCONHNHLF-Boc] (field: pKi) = 7.91
